- Test system: HIV-1(NL4-3)
- Protocol Details: microbe, parasite or virus in culture
- Format: cell-based
- Conditions: Human immunodeficiency virus 1, NL43; pretreated 1 h, HIV-1(NL4-3) 3 h, washed, 48 h; luciferase; read-out: IC50, inhibition of HIV
Assay Metric: IC50 (µM)
The reply should be a number in µM, with the unit left off.

The compound listed as COC(=O)c1ccc2[nH]c(C3CCN(c4ncnc5[nH]cc(Cl)c45)CC3)nc2c1 [Compound R10015] shows IC50 equal to 14.9

###

- Protocol Details: in vitro
- Conditions: human
Assay Metric: viability at 100 µM (%)
Please state the figure in %; there is no need to write the unit.

Some solved cases for reference:
> print(dat)
                                   molecule         assay.metric  readout.number
1  CC(C)NC(=O)c1ccc2[nH]c(N3CCN(c4ncnc5[nH]cc(Cl)c45)C[C@@H]3C)nc2c1 [Compound R10543]  viability at 100 µM            90.1
2  Cc1c[nH]c2ncnc(-c3ccc(NC(=O)N(CCO)c4ccccc4)cc3)c12 [Compound R7826]  viability at 100 µM            96.2
3  CCOC(=O)c1ccc2nc(N3CCN(c4ncnc5[nH]cc(Cl)c45)[C@@H](C)C3)[nH]c2c1 [Compound R10659]  viability at 100 µM            89.8
4  COC(=O)c1ccc2[nH]c(C3CCN(c4ncnc5[nH]cc(Cl)c45)CC3)nc2c1 [Compound R10015]  viability at 100 µM            89.2
5  Cc1c[nH]c2ncnc(-c3ccc(-c4nc5ccc(C(=O)NC6CCCC6)cc5[nH]4)c(F)c3)c12 [Compound R8584]  viability at 100 µM            93.7

The recorded viability at 100 µM for entry Cc1c[nH]c2ncnc(N3CCC(c4nc5cc(C#N)ccc5[nH]4)CC3)c12 [Compound R8212] equals 93.3

viability at 100 µM recorded for this molecule, CC1(c2nc3ccc(C(=O)NC4CCC4)cc3[nH]2)CCN(c2ncnc3[nH]ccc23)CC1 [Compound R8482] , is 93.4

###

- Study Target: LIMK1 (Homo sapiens, UniProt P53667)
- Sequence (P53667 285-638): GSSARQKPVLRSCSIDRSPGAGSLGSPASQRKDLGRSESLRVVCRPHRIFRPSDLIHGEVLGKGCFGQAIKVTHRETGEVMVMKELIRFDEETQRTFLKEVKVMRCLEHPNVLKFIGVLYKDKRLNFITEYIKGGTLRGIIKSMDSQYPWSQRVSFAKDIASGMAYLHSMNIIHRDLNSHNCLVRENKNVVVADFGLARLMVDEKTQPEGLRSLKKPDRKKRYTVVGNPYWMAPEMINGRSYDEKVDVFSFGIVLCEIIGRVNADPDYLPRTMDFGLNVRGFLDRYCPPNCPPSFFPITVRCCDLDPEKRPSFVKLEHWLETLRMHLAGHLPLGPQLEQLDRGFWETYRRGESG
# pIC50 annotations
In simple prose, pIC50 is minus the logarithm base ten of a concentration in moles per litre.

Short answer for CC1(c2nc3ccc(C(=O)NC4CCC4)cc3[nH]2)CCN(c2ncnc3[nH]ccc23)CC1 : pIC50 was 7.39

Documented pIC50 of COC(=O)c1ccc2[nH]c(C3CCN(c4ncnc5[nH]cc(Cl)c45)CC3)nc2c1 : 7.42

Summary for this compound, CC(C)NC(=O)c1ccc2[nH]c(N3CCN(c4ncnc5[nH]cc(Cl)c45)C[C@@H]3C)nc2c1 : pIC50 is 8.30

Data point: Cc1c[nH]c2ncnc(N3CCC(c4nc5cc(C#N)ccc5[nH]4)CC3)c12 ; pIC50 = 7.36

Cc1c[nH]c2ncnc(-c3ccc(-c4nc5ccc(C(=O)NC6CCCC6)cc5[nH]4)c(F)c3)c12 yielded pIC50 of 7.30

###

- Tested on: Jurkat T cells
- Protocol Details: SDF-1-mediated chemotaxis assay (transwell)
- Conditions: Homo sapiens, 2 h, read-out: IC50, inhibition of Jurkat T cell chemotaxis, SDF-1 40 ng/ml, 2 h, transwell
pIC50: −log10 of the molar value.
Assay Metric: pIC50

Documented pIC50 of COC(=O)c1ccc2[nH]c(C3CCN(c4ncnc5[nH]cc(Cl)c45)CC3)nc2c1 : ~5.00
